- system.under.test: Pyruvate kinase (Leishmania mexicana)
- protocol.summary: qHTS Validation Assay for Inhibitors of Leishmania Mexicana Pyruvate Kinase (AID 945)
- condition.summary: purified L. mexicana pyruvate kinase, enzyme activity, E451W mutant enzyme; series mostly up to 57.5 µM
The source made the active and inactive calls. The call rests on the fitted dose curve; in most records, active means well fitted inhibition curve with a large enough effect; inconclusive means small, poorly fitted or top-dose-only effect; inactive means no such curve, though single readings can be large or run the other way.
// allowed return values: 1 (yes) = active, 0 (no) = inactive

Solved cases below.
Q: What call does the record list for "COc1cc([C@H]2c3cc4c(cc3[C@@H](O)[C@@H]3COC(=O)[C@H]23)OCO4)cc(OC)c1OC" ?
A: 0 (no)

Q: Outcome? "COc1cccc(OC)c1OCCNC[C@@H]1CSc2ccccc2O1"
A: 0 (no)

Q: Can you look up the reported call for "C[C@@]12CCC(=O)C=C1CC[C@@H]1[C@@H]2[C@H](O)C[C@]2(C)[C@@H]1CC[C@]2(O)C(=O)COC(=O)CCC(=O)O" for me?
A: 0 (no)

Q: What was the test verdict on "NCCC[C@@](N)(C(=O)O)C(F)F" ?
A: 0 (no)

Q: Answer briefly: the call reported for "CCCCCC[C@@H]([C@H](C)O)n1cnc2c(N)ncnc21" in this assay.
A: 0 (no)

New cases:
Q: How did this test come out for "Nc1ncnc2c1ncn2[C@@H]1O[C@@H](COP(=O)(O)OP(=O)(O)OP(=O)(O)OP(=O)(O)OC[C@@H]2O[C@@H](n3cnc4c(N)ncnc43)[C@@H](O)[C@H]2O)[C@H](O)[C@@H]1O" ?
A: 0 (no)

Q: Name the outcome recorded for "CC(=O)O[C@@H]1[C@H]([N+]2(C)CCCCC2)C[C@@H]2[C@@H]3CC[C@@H]4C[C@@H](OC(C)=O)[C@H]([N+]5(C)CCCCC5)C[C@@]4(C)[C@H]3CC[C@]21C" in the assay.
A: 0 (no)

Q: Could you please tell me the result logged for "Cc1c(C)c2c(c(C)c1O)CC[C@@](C)(CN1CCN(c3cc(N4CCCC4)nc(N4CCCC4)n3)CC1)O2" in this assay?
A: 0 (no)

Q: Recorded test call requested for "CCCCC[C@H](O)CCCC(=O)O"
A: 0 (no)

Q: Assay outcome for "O=C(/C=C\c1ccc(O)cc1)c1ccc(O)cc1O" : what was it?
A: 1 (yes)

Q: What is the recorded call for this compound in the test? "O=c1[nH]c(=O)n([C@H]2C[C@H](O)[C@H](CO)O2)cc1/C=C\Br"
A: 0 (no)

Q: How did this test come out for "CNCC[C@H](Oc1ccccc1C)c1ccccc1" ?
A: 0 (no)

Q: In this assay, the call recorded for "CCCCCCCCCCCCCCCCCC(=O)NC[C@@H](COP(=O)([O-])OCC[N+](C)(C)C)OCC" was what?
A: 0 (no)

Q: Any idea what this test logged for "CC(=O)O[C@@H]1C[C@]2(C)[C@H](C[C@@H](O)[C@H]3[C@@]4(C)CC[C@@H](O)[C@@H](C)[C@@H]4CC[C@@]32C)/C1=C(\CCC=C(C)C)C(=O)O" ?
A: 0 (no)

Q: Per the records of this test, what outcome belongs to "CN(C)CCCO[C@H]1[C@H]([C@H](O)CO)O[C@H]2OC(C)(C)O[C@@H]21" ?
A: 0 (no)

Q: Identify the outcome logged in this assay for the compound shown: "COc1ccc(NC(=O)/C=C\c2ccc(Cl)cc2)cc1"
A: 1 (yes)

Q: Assay result, entry "COC(=O)C1=C(C)NC(C)=C(C(=O)OCCN(C)Cc2ccccc2)[C@@H]1c1cccc([N+](=O)[O-])c1" — outcome?
A: 0 (no)

Q: Any idea what this test logged for "O=C1[C@@H]2C=CC=CC2=NC(=S)N1CCN1CCC(=C(c2ccc(F)cc2)c2ccc(F)cc2)CC1" ?
A: 0 (no)

Q: Given "Clc1ccc(C(c2ccc(Cl)cc2)n2cc[n+](C[C@@H](OCc3ccc(Cl)cc3Cl)c3ccc(Cl)cc3Cl)c2)cc1" , state the outcome it received in this test.
A: 0 (no)

Q: Look up the recorded call for "COc1cccc2c1[C@@H]1CN(CCCCn3c(=O)[nH]c4c(sc5ncc(-c6ccccc6)nc54)c3=O)C[C@H]1CO2" in this test.
A: 0 (no)

Q: Returns: the outcome recorded for C[C@H](N)C1CCC(C(=O)Nc2ccncc2)CC1 (stereo partly specified) in this assay.
A: 0 (no)

Q: Please state the recorded outcome for this compound: "FC(F)(F)c1cc(CO[C@@H]2CCCN[C@H]2c2ccccc2)cc(C(F)(F)F)c1"
A: 0 (no)

Q: Call for entry "N[C@H](Cc1ccc(F)cc1)C(=O)O" :
A: 0 (no)

Q: Record request — test call for "CC[C@]1(O)C[C@H]2CN(CCc3c([nH]c4ccccc34)[C@](C(=O)OC)(c3cc4c(cc3OC)N(C)[C@@H]3[C@](O)(C(=O)OC)[C@H](OC(C)=O)[C@]5(CC)C=CCN6CC[C@]43[C@@H]65)C2)C1"
A: 0 (no)

Q: Hello, I am checking results. What call was entered for "CC(=O)S[C@@H]1CC2=CC(=O)CC[C@@]2(C)[C@H]2CC[C@]3(C)[C@H](CC[C@@]34CCC(=O)O4)[C@H]12" ?
A: 0 (no)

Q: Per the assay record, what outcome was assigned to "CCCCCCCCCCCCCCCCCCNC(=O)OC[C@@H](COP(=O)([O-])OCC[n+]1ccsc1)OC" ?
A: 0 (no)

Provenance of the data: PubChem BioAssay (NCATS)
